- study_system: rat μ-opioid receptor (rat, UniProt P33535 1-398)
- Sequence (P33535 whole entry): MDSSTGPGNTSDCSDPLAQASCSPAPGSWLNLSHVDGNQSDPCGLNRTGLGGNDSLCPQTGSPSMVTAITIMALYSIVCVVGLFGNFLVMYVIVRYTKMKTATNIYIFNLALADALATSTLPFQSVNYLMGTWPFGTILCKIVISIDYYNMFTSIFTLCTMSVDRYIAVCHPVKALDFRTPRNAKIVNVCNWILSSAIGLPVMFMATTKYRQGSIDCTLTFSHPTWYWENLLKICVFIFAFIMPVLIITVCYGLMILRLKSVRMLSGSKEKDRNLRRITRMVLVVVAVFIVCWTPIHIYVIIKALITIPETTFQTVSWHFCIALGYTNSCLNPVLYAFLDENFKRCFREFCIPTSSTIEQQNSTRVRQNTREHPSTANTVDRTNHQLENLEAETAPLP
- procedure_text: cell-based or functional assay
Non-standard residues stand in square brackets, D forms with d. No end group written: not given here. *: point of attachment. NH(3,5-(CF3)2-benzyl) = FC(F)(F)c1cc(CN*)cc(C(F)(F)F)c1; βGlc = OC[C@H]1O[C@@H](*)[C@H](O)[C@@H](O)[C@@H]1O; Nle = CCCC[C@H](N)C(=O)O
// reported [35S]GTPγS binding, HN9.10 membranes expressing rMOR: LogEC50 per item
measure: [35S]GTPγS binding, HN9.10 membranes expressing rMOR: LogEC50

binder	recorded_result
Y[dA]GF[Nle]S(βGlc)LW-{NH(3,5-(CF3)2-benzyl)} [Tyr-D-Ala-Gly-Phe-Nle-Ser(Glc)-Leu-Trp-NH-3’,5’-Bzl(CF3)2]	-6.42
Y[dA]GF[Nle]PLS(βGlc)W-{NH(3,5-(CF3)2-benzyl)} [Tyr-D-Ala-Gly-Phe-Nle-Pro-Leu-Ser(Glc)-Trp-NH-3’,5’-Bzl(CF3)2]	-8.21
Y[dA]GFS(βGlc)PLW-{NH(3,5-(CF3)2-benzyl)} [Tyr-D-Ala-Gly-Phe-Ser(Glc)-Pro-Leu-Trp-NH-3’,5’-Bzl(CF3)2]	-6.76
Y[dA]GF[Nle]PS(βGlc)W-{NH(3,5-(CF3)2-benzyl)} [Tyr-D-Ala-Gly-Phe-Nle-Pro-Ser(Glc)-Trp-NH-3’,5’-Bzl(CF3)2]	-7.75
